# Experiment: Cytotoxicity against human HL60 cells assessed as cell growth inhibition after 48 hrs by cell titer blue cell viability assay
# Type: functional, cell-based
# Test settings: HL-60, 48 h
Listed here: items and their measured IC50.
# do not omit the unit; it follows the number

Would you please look over these solved cases?
>>> print(df.to_string())
                                   compound  observed_measurement
0  C#CCOC(=O)C1=C(N)Oc2ccc(-c3cc(OC)cc(OC)c3)cc2C1CC(O)CCC (stereo not given)               46.6 µM
1  C#CCOC(=O)C1=C(N)Oc2ccc(-c3cc(OC)cc(OC)c3)cc2C1CC(=O)CCC (stereo not given)                6.9 µM

Query: Name the recorded IC50 of the compound listed here: C#CCOC(=O)C1=C(N)Oc2ccc(-c3cc(OC)cc(OC)c3)cc2C1CC(O)c1ccccc1 (stereo not given)
Result: 100 µM

Query: Report measured IC50; entry is C#CCOC(=O)CC1C(C(=O)OCC#C)=C(N)Oc2cc3c(cc21)-c1cc(OC)cc(OC)c1CO3 (stereo not given)
Result: 41.9 µM

Query: Name the recorded IC50 of the compound listed here: CCCC(=O)CC1C(C(=O)OCC)=C(N)Oc2ccc(-c3cc(OC)cc(OC)c3)cc21 (stereo not given)
Result: 27.3 µM

---

# Test system: HL-60
# Experiment: Selectivity ratio of IC50 for human HL60/MX2 cells to IC50 for human HL60 cells
# Type: functional
Metric: Ratio IC50

In [3]: df
Out[3]:
                                   compound      metric  observed_measurement
0  CCCC(=O)CC1C(C(=O)OCC)=C(N)Oc2ccc(-c3cc(OC)cc(OC)c3)cc21 (stereo not given)  Ratio IC50                  0.43
1  CCOC(=O)CC1C(C(=O)OCC)=C(N)Oc2ccc(-c3cc(OC)cc(OC)c3)cc21 (stereo not given)  Ratio IC50                  0.32
2  C#CCOC(=O)C1=C(N)Oc2ccc(-c3cc(OC)cc(OC)c3)cc2C1CC(=O)c1ccccc1 (stereo not given)  Ratio IC50                  0.81

Query: Determine its reported Ratio IC50: C#CCOC(=O)CC1C(C(=O)OCC#C)=C(N)Oc2cc3c(cc21)-c1cc(OC)cc(OC)c1CO3 (stereo not given)
Result: 0.18

Query: Note down Ratio IC50 recorded for C#CCOC(=O)CC1C(C(=O)OCC#C)=C(N)Oc2cc(C)c(-c3cccc(N)c3)c(C)c21 (stereo not given)
Result: 1.63

Query: Fill in Ratio IC50 for record C#CCOC(=O)C1=C(N)Oc2ccc(-c3cc(OC)cc(OC)c3)cc2C1CC(=O)CCC (stereo not given)
Result: 0.78

Query: Note Ratio IC50 for the compound shown: CCOC(=O)C1=C(N)Oc2ccc(-c3cc(OC)cc(OC)c3)cc2C1CC(=O)c1ccccc1 (stereo not given)
Result: 0.38

Query: Return the recorded Ratio IC50 value; entry: C#CCOC(=O)CC1C(C(=O)OCC#C)=C(N)Oc2ccc(-c3cc(OC)cc(OC)c3)cc21 (stereo not given)
Result: 0.74

Query: Input C#CCOC(=O)C1=C(N)Oc2ccc(-c3cc(OC)cc(OC)c3)cc2C1CC(O)c1ccccc1 (stereo not given) , output reported Ratio IC50.
Result: 0.54

Query: Respond only with Ratio IC50 recorded for C#CCOC(=O)C1=C(N)Oc2ccc(-c3cc(OC)cc(OC)c3)cc2C1CC(O)CCC (stereo not given)
Result: 0.77

---

# Experiment: Cytotoxicity against human HL60 cells assessed as cell growth inhibition after 48 hrs by cell titer blue cell viability assay
# Assay type: functional, cell-based
# Test settings: HL-60, 48 h
Labelling field: enter true (1) if recorded IC50 is less than 7 µM. Enter false (0) if it equals or exceeds that cut-off.

>>> print(df.to_string())
                                   compound  discrete_label
0  CCOC(=O)C1=C(N)Oc2ccc(-c3cc(OC)cc(OC)c3)cc2C1CC(=O)c1ccccc1 (stereo unspecified)       false (0)
1  C#CCOC(=O)CC1C(C(=O)OCC#C)=C(N)Oc2ccc(-c3cccc(N)c3)cc21 (stereo unspecified)        true (1)
2  CCOC(=O)CC1C(C(=O)OCC)=C(N)Oc2ccc(-c3cc(OC)cc(OC)c3)cc21 (stereo unspecified)        true (1)

Query: Quick check: IC50 of C#CCOC(=O)CC1C(C(=O)OCC#C)=C(N)Oc2ccc(-c3cc(OC)cc(OC)c3)cc21 (stereo unspecified) under 7 µM?
Result: true (1)

Query: Lab log: compare recorded IC50 with 7 µM; is it strictly lower for C#CCOC(=O)C1=C(N)Oc2ccc(-c3cc(OC)cc(OC)c3)cc2C1CC(=O)c1ccccc1 (stereo unspecified) ?
Result: false (0)

Query: Item C#CCOC(=O)CC1C(C(=O)OCC#C)=C(N)Oc2cc(C)c(-c3cccc(N)c3)c(C)c21 (stereo unspecified) : IC50 beneath 7 µM, strictly?
Result: false (0)

Hey, just so you know, these numbers are from ChEMBL document CHEMBL3758100.
